// IC50 collected for EtCRK2 (Eimeria tenella)
Note: unit µM is implicit; provide only the numeric part.

compound_structure=O=C1NC(=Nc2nc3cc([N+](=O)[O-])ccc3[nH]2)NC1=O unit=µM data_value=15

## Input GET /values?readout=IC50&item= CCN(CC)S(=O)(=O)c1ccc2c3c(cccc13)C(=O)N2
## Output 36

## Input Can you share its IC50? I mean this molecule: Cc1c(CCC(=O)O)c(=O)n2c([nH]c3ccccc32)c1C#N
## Output 61

## Input Using the record for O=C(O)CN1C(=O)/C(=C2\SC(=S)NC2=O)c2ccccc21 , report its IC50.
## Output 23

---

target: EtCRK2 (Eimeria tenella, UniProt Q6R8F0)
Sequence (Q6R8F0 1-296): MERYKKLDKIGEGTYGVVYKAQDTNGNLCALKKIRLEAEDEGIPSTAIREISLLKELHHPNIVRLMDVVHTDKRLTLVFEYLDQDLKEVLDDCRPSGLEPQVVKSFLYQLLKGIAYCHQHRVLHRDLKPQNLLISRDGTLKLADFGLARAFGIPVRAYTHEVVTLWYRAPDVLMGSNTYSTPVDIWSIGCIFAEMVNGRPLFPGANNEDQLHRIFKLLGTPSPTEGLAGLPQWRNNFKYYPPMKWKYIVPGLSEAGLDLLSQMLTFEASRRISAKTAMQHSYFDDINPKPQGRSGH
Recorded Endpoint: Ki (µM)
Expressed in µM, but write only the number.

Reference set, count: 3
compound_structure=Cc1c(CCC(=O)O)c(=O)n2c([nH]c3ccccc32)c1C#N unit=µM data_value=83
compound_structure=CCN(CC)S(=O)(=O)c1ccc2c3c(cccc13)C(=O)N2 unit=µM data_value=6
compound_structure=O=C(O)CN1C(=O)/C(=C2\SC(=S)NC2=O)c2ccccc21 unit=µM data_value=16

Then there is this compound:
## Input Under EtCRK2 (Eimeria tenella, UniProt Q6R8F0): Ki value of O=C1NC(=Nc2nc3cc([N+](=O)[O-])ccc3[nH]2)NC1=O ?
## Output 8
